The measurements presented in this section are drawn from patent US4839374A.

Tested on: compound 48/80-induced lethality
Assay: Protection of rats from compound 48/80-induced lethality
Assay type: in vivo, rats of an inbred Wistar strain
Settings: Rattus norvegicus, 4 h, read-out: Compound 48/80 lethality test in rats ED50, s.c. or p.o. 1 h before compound 48/80 0.5 mg/kg i.v.; protection of 50% of animals, survival after 4 hours
Method: Protection of rats from compound 48/80-induced lethality The protection from compound 48/80-induced lethal circulatory collapse appears to be a simple way of evaluating quantitatively the antihistaminic activity of test compounds. Male rats of an inbred Wistar strain, weighing 240-260 g were used in the experiment. After overnight starvation the rats were transferred to conditioned laboratories (temp.=21±1° C., relative humidity=65+5%). […]
The label y is reserved for ED50 strictly under 0.04 mg/kg; n covers values equal to or above it.

molecule | classAssignment
COc1ccc(CCN2CCC(Cc3nc4cnccc4n3Cc3ccc(F)cc3)CC2)cc1 [Compound 202] | n
Fc1ccc(Cn2c(CC3CCN(CCNc4nc5ccccc5[nH]4)CC3)nc3cccnc32)cc1 [Compound 329] | n
O=c1[nH]c2ccccc2n1CCCN1CCC(Cc2nc3ccccc3n2Cc2ccco2)CC1 [Compound 139] | n
O=c1c2ccccc2[nH]c(=S)n1CCN1CCC(Cc2nc3ccccc3n2Cc2ccc(F)cc2)CC1 [Compound 460] | n

Ask | # TODO verify ED50 < 0.04 mg/kg strictly for this molecule: CN(CCN1CCC(Cc2nc3ccccc3n2Cc2ccc(F)cc2)CC1)Cc1ccccc1 [Compound 512]
Reply | n

Ask | # TODO verify ED50 < 0.04 mg/kg strictly for this molecule: c1ccc(Cn2c(CC3CCN(CCNc4nccs4)CC3)nc3cccnc32)cc1 [Compound 362]
Reply | n
